measurement-type: melting point

structure-string: CCOC(=O)c1ccc(-c2ccc3c(c2)COC2(CCN(C4CCC4)CC2)O3)cc1
measurement-type: melting point
measured: 148 to 149 °C
--
structure-string: CNC(=O)c1ccc(-c2ccc3c(c2)COC2(CCN(C4CCC4)CC2)O3)cc1F
measurement-type: melting point
measured: 147.8 to 149 °C
--
structure-string: COCC1CCN(c2ccc3c(c2)COC2(CCN(C4CCC4)CC2)O3)CC1
measurement-type: melting point
measured: 92.3 to 94.2 °C

--- query ---
[ask] Quick one: melting point of Cn1cc2c(n1)CCC(c1ccc3c(c1)COC1(CCN(C4CCC4)CC1)O3)=C2 ?
[reply] 149 to 150 °C

###

measurement-type: melting point

Completed entries (count: 5):
molecule: Cn1cc(-c2ccc3c(c2)COC2(CCN(C4CCC4)CC2)O3)cnc1=O
measured: 230 to 231 °C
//
molecule: CC(C)NC(=O)N1CCN(c2ccc3c(c2)COC2(CCN(C4CCC4)CC2)O3)CC1
measured: 206.5 to 207.5 °C
//
molecule: CC(C)N1CC(c2ccc3c(c2)COC2(CCN(C4CCC4)CC2)O3)CCC1=O (centres unmarked)
measured: 129 to 134 °C
//
molecule: COc1cc(-c2ccc3c(c2)COC2(CCN(C4CCC4)CC2)O3)ccc1C(=O)O
measured: 173 to 175 °C
//
molecule: c1cc2c(cc1OCC1CCOC1)CCC1(CCN(C3CCC3)CC1)O2 (centres unmarked)
measured: 97 to 99 °C

[ask] Quick one: melting point of CNC(=O)N1CCN(c2ccc3c(c2)COC2(CCN(C4CCC4)CC2)O3)C(=O)C1 ?
[reply] 145 to 149 °C

[ask] Quick one: melting point of COCCNC(=O)c1cc(-c2ccc3c(c2)COC2(CCN(C4CCC4)CC2)O3)cs1 ?
[reply] 145 to 146 °C

[ask] Quick one: melting point of CCc1nnc(COc2ccc3c(c2)CCC2(CCN(C4CCC4)CC2)O3)o1 ?
[reply] 170 to 172 °C

###

Documented melting point across a set of molecules

molecule: O=S1(=O)CCC(c2ccc3c(c2)COC2(CCN(C4CCC4)CC2)O3)CC1 [Example 489]
melting point: 210 to 211 °C
--
molecule: O=c1ccc(Oc2ccc3c(c2)CCC2(CCN(C4CCC4)CC2)O3)c[nH]1 [Example 485]
melting point: 284 to 286 °C
--
molecule: c1cc2c(cc1N1CCNCC1)CCC1(CCN(C3CCC3)CC1)O2 [Example 377]
melting point: 116 to 118 °C

--- query ---
[ask] Quick one: melting point of COC[C@H](C)NC(=O)c1ccc(-c2ccc3c(c2)CCC2(CCN(C4CCC4)CC2)O3)cc1Cl [Example 591] ?
[reply] 120 to 122 °C

###

Documented melting point across a set of compounds

Completed entries (count: 3):
compound: O=C(Nc1ccc2c(c1)COC1(CCN(C3CCC3)CC1)O2)c1cnco1
melting point: 175 to 177 °C
--
compound: O=C1C[C@@H](O)CN1c1ccc2c(c1)COC1(CCN(C3CCC3)CC1)O2
melting point: 120 to 122 °C
--
compound: O=C1CCC(c2ccc3c(c2)COC2(CCN(C4CCC4)CC2)O3)CN1CC(F)F (centres unmarked)
melting point: 120 to 126 °C

[ask] Quick one: melting point of COc1ccnc(-c2ccc3c(c2)COC2(CCN(C4CCC4)CC2)O3)n1 ?
[reply] 100 to 102 °C

[ask] Quick one: melting point of Cc1n[nH]c(C)c1-c1ccc2c(c1)CCC1(CCN(C3CCC3)CC1)O2 ?
[reply] 86 to 88 °C

###

Documented melting point across a set of compounds

compound: O=C(Nc1ccc2c(c1)CCC1(CCN(C3CCC3)CC1)O2)c1ccncc1
melting point: 65 to 67 °C

compound: O=c1ccc(-c2ccc3c(c2)COC2(CCN(CCC4CCOCC4)CC2)O3)c[nH]1
melting point: 214 to 216 °C

compound: Cc1cc(-c2ccc3c(c2)COC2(CCN(C4CCC4)CC2)O3)cnc1O
melting point: 95.2 to 97 °C

compound: Cc1cc(C(=O)Nc2ccc3c(c2)COC2(CCN(C4CCC4)CC2)O3)cc(C)n1
melting point: 191 to 193 °C

compound: CN(C)C(=O)N1CCN(c2ccc3c(c2)CCC2(CCN(C4CCC4)CC2)O3)CC1
melting point: 272 to 274 °C

compound: N#Cc1cnc(Nc2ccc3c(c2)COC2(CCN(C4CCC4)CC2)O3)s1
melting point: 217 to 218 °C

compound: O=C1CCC(Cc2ccc3c(c2)COC2(CCN(C4CCC4)CC2)O3)CN1 (centres unmarked)
melting point: 219 to 221 °C

compound: OC1CCC(c2ccc3c(c2)COC2(CCN(C4CCC4)CC2)O3)CC1 (centres unmarked) [Example 531]
melting point: 113 to 115 °C

[ask] Quick one: melting point of COc1ncc(-c2ccc3c(c2)COC2(CCN(C4CCC4)CC2)O3)cc1F ?
[reply] 175 to 177 °C

[ask] Quick one: melting point of COC[C@H](C)NC(=O)c1ccc(-c2ccc3c(c2)COC2(CCN(C4CCC4)CC2)O3)cc1Cl ?
[reply] 150 to 152 °C

[ask] Quick one: melting point of Cc1nnc(C2CCC(c3ccc4c(c3)COC3(CCN(C5CCC5)CC3)O4)CC2)o1 (centres unmarked) ?
[reply] 62.4 to 64.7 °C

[ask] Quick one: melting point of CN(C)C(=O)c1ccc(-c2ccc3c(c2)COC2(CCN(C4CCC4)CC2)O3)cc1 ?
[reply] 187 to 190 °C

###

Documented melting point across a set of compounds

structure-string: O=C(NC1CCOCC1)c1ccc(-c2ccc3c(c2)COC2(CCN(C4CCC4)CC2)O3)cc1Cl
measured: 209 to 211 °C
--
structure-string: Cc1cc(=O)[nH]c(C)c1-c1ccc2c(c1)COC1(CCN(C3CCC3)CC1)O2
measured: 247 to 249 °C
--
structure-string: COC1CCN(C(=O)c2ccc(-c3ccc4c(c3)CCC3(CCN(C5CCC5)CC3)O4)cc2)CC1
measured: 66.8 to 67.5 °C
--
structure-string: OCc1cn(-c2ccc3c(c2)COC2(CCN(C4CCC4)CC2)O3)c2ccccc12
measured: 138 to 141 °C
--
structure-string: OCCn1cc(-c2ccc3c(c2)CCC2(CCN(C4CCC4)CC2)O3)cn1
measured: 101 to 103 °C

[ask] Quick one: melting point of OC1(c2ccc3c(c2)COC2(CCN(C4CCC4)CC2)O3)CCCCC1 ?
[reply] 164 to 165 °C

[ask] Quick one: melting point of CNC(=O)N1CCN(c2ccc3c(c2)COC2(CCN(C4CCC4)CC2)O3)CC1 ?
[reply] 59 to 62 °C

[ask] Quick one: melting point of N#Cc1ccc(-c2ccc3c(c2)COC2(CCN(C4CCC4)CC2)O3)cn1 ?
[reply] 159.8 to 160.7 °C

###

measurement-type: melting point

Completed entries (count: 7):
compound: c1cc2c(cc1OCC1CC1)CCC1(CCN(C3CCC3)C1)O2 (centres unmarked) [Example 446]
measured: 177 to 178 °C
--
compound: c1cc(CNc2ccc3c(c2)COC2(CCN(C4CCC4)CC2)O3)ccn1 [Example 247]
measured: 45 to 48 °C
--
compound: COc1cc(C(=O)Nc2ccc3c(c2)COC2(CCN(C4CCC4)CC2)O3)ccn1 [Example 267]
measured: 175 to 176 °C
--
compound: Cc1nc2cccc(Cl)c2c(=O)n1-c1ccc2c(c1)COC1(CCN(C3CCC3)CC1)O2 [Example 801]
measured: 105 to 107 °C
--
compound: COCCNC(=O)C1CCCN(c2ccc3c(c2)COC2(CCN(C4CCC4)CC2)O3)C1 (centres unmarked) [Example 613]
measured: 55.4 to 57.3 °C
--
compound: O=C(Nc1ccc2c(c1)COC1(CCN(C3CCC3)CC1)O2)c1ccccn1 [Example 152]
measured: 172 to 174 °C
--
compound: CC(=O)N(c1ccc2c(c1)COC1(CCN(C3CCC3)CC1)O2)c1ccccn1 [Example 253]
measured: 53 to 55 °C

[ask] Quick one: melting point of O=C(c1ccc(-c2ccc3c(c2)COC2(CCN(C4CCC4)CC2)O3)cc1F)N1CCCC1 [Example 41] ?
[reply] 171 to 172.5 °C

###

measurement-type: melting point

Completed entries (count: 3):
structure-string: c1cc2c(cc1OCc1nnc(C3CC3)o1)CCC1(CCN(C3CCC3)CC1)O2
measurement-type: melting point
measured: 158 to 159 °C

structure-string: Cc1cc(C2CCN(c3ccc4c(c3)COC3(CCN(C5CCC5)CC3)O4)CC2)on1
measurement-type: melting point
measured: 135.9 to 137.2 °C

structure-string: c1cc2c(cc1N1CCCCC1)CCC1(CCN(C3CCC3)CC1)O2
measurement-type: melting point
measured: > 280 °C (dec.)

--- query ---
[ask] Quick one: melting point of Cn1cc(-c2ccc3c(c2)COC2(CCN(C4CCC4)CC2)O3)c2ccccc2c1=O ?
[reply] 207 to 209 °C
